ASSAYED TARGET: D(1A) dopamine receptor (Homo sapiens)
METHOD: Antagonist of Human D 1 Dopamine Receptor: qHTS; note: % is set by controls: 0 for no effect and ±100 for the full control effect
RUN PARAMETERS: HEK293 TREx D1 cells, calcium flux, dopamine EC80; at 10 µM; stronger effect = lower value
Description: Dopamine receptors (DARs) are involved in the etiology and/or therapy of a number of neuropsychiatric and endocrine disorders. […] Freshly passaged cells are plated in 1536 well black, clear bottom plates at a density of 4000 cells/well in 3 ul of complete media containing 1x tetracycline inducer. […] Agonist read: A 10 cycle (1 second/cycle) baseline measurement is taken and then the FDSS online 1536 pintool delivers 23 nl of compound library (as well as dopamine controls) to the plate. […]
In all, about 360,000 compounds went through this assay and about 11,000 (3.1%) were called active. What follows is part of a selection rich in actives, with near analogues and random picks from the rest.
ENDPOINT LABEL: activity change, negative = inhibition (%)
Report as a plain number; the unit % is understood.

Use the examples below as a reference point.
Item: `CCc1cccc(NC(=O)c2cc(-c3ccccc3)n[nH]2)c1` | activity change, negative = inhibition: -7.87

# activity change, negative = inhibition of CN(C)CCCN1C(=O)CSC1c1ccc([N+](=O)[O-])cc1 (stereo not given) = 26.5

Reported activity change, negative = inhibition ( `Cc1ccc(C)c(Cn2c(C(=O)O)c(CNCc3cccs3)c3ccccc32)c1` ) = 57.2

Just so you know, measured activity change, negative = inhibition for CCN(CC)S(=O)(=O)c1ccc2c(c1)N(CC(=O)NCC(C)c1ccccc1)C(=O)CO2 (stereo not given) came out at 6.95

Others:
Consider `COc1ccc(-c2nn(CC(=O)NC3CCCC3)c3c2cnc2ccc(F)cc23)cc1` . Its measured activity change, negative = inhibition is -17.2

* * *

ASSAYED TARGET: D(1A) dopamine receptor (Homo sapiens) (UniProt P21728)
Sequence (P21728 whole entry, looked up): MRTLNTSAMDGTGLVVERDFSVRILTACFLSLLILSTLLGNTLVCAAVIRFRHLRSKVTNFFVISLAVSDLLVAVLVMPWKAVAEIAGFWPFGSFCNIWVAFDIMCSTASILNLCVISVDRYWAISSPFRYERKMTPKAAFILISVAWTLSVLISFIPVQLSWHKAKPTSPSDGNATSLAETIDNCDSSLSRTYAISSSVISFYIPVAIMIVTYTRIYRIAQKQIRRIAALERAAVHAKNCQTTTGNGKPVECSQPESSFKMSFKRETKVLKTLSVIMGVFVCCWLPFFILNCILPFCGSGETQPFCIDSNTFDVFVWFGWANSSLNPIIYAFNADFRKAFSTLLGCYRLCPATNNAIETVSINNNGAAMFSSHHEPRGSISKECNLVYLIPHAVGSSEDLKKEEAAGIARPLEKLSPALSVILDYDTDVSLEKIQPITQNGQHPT
METHOD: Antagonist of Human D 1 Dopamine Receptor: qHTS; note: % is set by controls: 0 for no effect and ±100 for the full control effect
RUN PARAMETERS: HEK293 TREx D1 cells, calcium flux, dopamine EC80; at 10 µM; stronger effect = lower value
Hit rate of the full screen: of about 360,000 compounds, about 11,000 (3.1%) were called active. The sample holds actives, similar compounds and a random draw of the others, so the mix is not that of the screen.
ENDPOINT LABEL: activity change, negative = inhibition (%)
Please reply with the bare figure in % and do not write the unit itself.

Given the molecule `COc1ccc(C(=O)N2CCC(c3nc4ccccc4o3)CC2)cc1` and test system D(1A) dopamine receptor (Homo sapiens) (UniProt P21728), the measured activity change, negative = inhibition is 4.96

Form field, activity change, negative = inhibition with D(1A) dopamine receptor (Homo sapiens) (UniProt P21728), item CC(Sc1oc(-c2ccco2)nc1S(=O)(=O)c1ccc(Br)cc1)c1ccccc1 (configuration not stated) : 6.94

Reported D(1A) dopamine receptor (Homo sapiens) (UniProt P21728) activity change, negative = inhibition for item `O=C(CSc1n[nH]c(-c2cccnc2)n1)Nc1ccnc2ccccc12` was -30.8

Reported activity change, negative = inhibition (D(1A) dopamine receptor (Homo sapiens) (UniProt P21728)) for entry `Cc1nn(C(=O)c2c(F)cccc2F)c(C)c1S(=O)(=O)N1CCOCC1` is 10.5

The value of activity change, negative = inhibition recorded for `COc1ccc(OCC(=O)Nc2nnc(-c3ccco3)s2)cc1` when tested on D(1A) dopamine receptor (Homo sapiens) (UniProt P21728) reads -88.7
